B1: library; a variant is named by its letters at N, in order (parent)
chain: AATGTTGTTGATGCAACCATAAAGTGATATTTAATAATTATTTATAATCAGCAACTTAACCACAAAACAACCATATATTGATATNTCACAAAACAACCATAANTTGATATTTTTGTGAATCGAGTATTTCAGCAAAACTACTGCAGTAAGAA

Variants of: B1
Test: relative integration efficiency (T-LR orientation) vs wild-type transposon end (log2 (normalized fold change)); transposon end mutated: left end; higher = more efficient transposition
Details: with VchCAST RNA-guided transposition machinery (E. coli BL21(DE3) host, lacZ target)
Rule: relative integration efficiency (log2) under -1 gives condition not met, otherwise condition met.

In: Form field: relative integration efficiency (log2) at least -1? Entry: CG A96C C97A C98A A99C
Out: condition not met

In: Continue with CC A22T A23T T76A A77T A102T
Out: condition met

In: Repeat for the following variant: CG A34C T35G
Out: condition met

In: Would you mind doing CG A47T as well?
Out: condition met

In: Now the same for CG T114C
Out: condition met

In: Lookup CG T111A T112A
Out: condition met

In: Same question for CG A44T T45A please.
Out: condition met

In: Try this variant next: TA G24A T30A A70C T76A T86G T104A T110A T113A
Out: condition met

In: Okay, and AG T84G T86G C87A ?
Out: condition met

In: Then what about the variant CG C49G G51T C52G C55T A58T A59T C60A C61T A62G ?
Out: condition not met

In: How about this variant: CG A33C A34C
Out: condition met

In: CG T120G ?
Out: condition met

In: Now the same for CG T3G
Out: condition met

In: Okay, and CG T108G A109C T110G T111G ?
Out: condition not met

In: Try CG T28G A29C T30G T31G next.
Out: condition not met

In: Input CG T74G A75C T76G A77C
Out: condition not met

In: Lookup CG C97G C98G
Out: condition not met

In: Next up: CG A54C
Out: condition met

In: Again, but for CG C49T
Out: condition met

In: For CG A1C then?
Out: condition met

In: One more variant: CG A34C T35C A36G T38C A40G T42C A44G A62G A65G A66C
Out: condition met

In: Can you check CG A19C T20G next?
Out: condition not met
